# kon listing for each entry below
- target-system: T1, A beta 1-40 oligomer (synthetic A beta1-40, HCl form, 0.1 mg/ml in PBS, incubated at 37 degrees C for one … (UniProt P05067 672-711))
- T1 construct: domain: A beta 1-40; Non-fibrous assembly of many copies of the same peptide; also called A beta oligomer
- assay-notes: SPR, Biacore 3000, A beta oligomer on CM5 chip, antibody as analyte
- Procedure: The analysis was carried out by Surface Plasmon Resonance (SPR) using Biacore 3000 (GE Healthcare Sciences).
Entry rule: numbers only, all in M⁻¹ s⁻¹.

IR-103 antibody (antibody, V domains shown, Mouse monoclonal from a hybridoma) VH: DVQLVESGGGLVQPGGSRKLSCAASGFTFSSFGMHWVRQAPEKGLEWVAYISSGSSTIYYADTVKGRFTISRDNPKNTLFLQMTSLRSEDTAMYYCARSPLLRLQGLAYWGQGTLVTVSA VL: DVLMTQTPLSLPVSLGDQASISCRSSQSIVHSNGNTYLEWYLQKPGQSPKLLIYKVSNRFSGVPDRFSGSGSGTDFTLKISRVEAEDLGVYYCFQGSHVPPTFGGGTKLEIK | 130000

Enquiry: kon for IR-091 antibody (antibody, V domains shown, Mouse monoclonal from a hybridoma) VH: QVTLKESGPGILKPSQTLSLTCSFSGFSLSTSGMGVGWIRQPSGKGLEWLAHIWWDDDKYYNPSLKSQLTISKDTSRNQVFLKITSVDTADTATYYCARRGLRRGDYFDYWGQGTTLTVSS VL: DVLMTQTPLSLPVSLGDQASISCRSSQSIVHSNGNTYLEWYLQKPGQSPKLLIYKVSNRFSGVPDRFSGSGSGTDFTLKISRVEAEDLGVYYCFQGSHVPLTFGAGTKLELK ?
Return: 255000

Enquiry: # input binder: IR-003 antibody (antibody, V domains shown, Mouse monoclonal from a hybridoma (BALB/c); constant regions are not) VH: QVTLKESGPGILQPSQTLSLTCSFSGFSLSTSGMGVSWIRQPSGKGLEWLAHIYWDDDKRYNPSLKSRLTISKDTSSNQVFLKITSVDTADTATYYCARRGEVRRRGYYAMDYWGQGTSVTVSS VL: DVVMTQTPLSLPVSLGDQASISCRSSQSLVHSNGNTYLHWYLQKPGQSPKLLIYKVSNRFSGVPDRFSGSGSGTDFTLKISRVEAEDLGVYFCSQSTHVPLTFGAGTKLELK ; wanted: its kon
Return: 94800
